protocolText: qHTS assay to identify small molecule HDAC inhibitors (AID 1259364);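 further: wild-type HCT-116 cells with endogenous class I/II HDAC activity; nearly all actives have a fitted effect of over 45% in size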
setupConditions: HCT-116 HDAC-Glo I/II luminescence, 2 h; series mostly up to 92.4 µM
Records with an inconclusive call do not appear. Active and inactive are the calls of the source. The call rests on the fitted dose curve; in most records, active means well fitted inhibition curve with a large enough effect in the repeat runs; inconclusive means weak or mixed curves; inactive means flat fitted curve, though single readings scatter.
Labels: active, inactive

| compound | className |
| --- | --- |
| NC(N)=NS(=O)(=O)c1ccc(N)cc1 | inactive |
| O=C1CC2(CCCC2)CC(=O)N1 | inactive |
| CCO[Si](CCCN=C=O)(OCC)OCC | inactive |
| CC1=CC(=O)CCC1 | inactive |
| CC(C)CCCC(C)CCCC(C)CCCCC(C)CCCC(C)CCCC(C)C (configuration not stated) | inactive |
| C=C(C)C1CC=C(C)C(O)C1 (configuration not stated) | inactive |
| CCn1c(=O)c2c(nc(/C=C/c3ccc(OC)c(OC)c3)n2C)n(CC)c1=O | inactive |
| Cc1ccc(N)cc1[N+](=O)[O-] | inactive |
| [O-][N+](=Nc1ccccc1)c1ccccc1 | active |
| OCc1ccccn1 | inactive |
| CCC(C)OC(=O)N1CCCCC1CCO (configuration not stated) | inactive |
| OCCCCCCO | inactive |
| C/C=C1\C(=O)C[C@H]2[C@@H]3CCC4=CC(=O)CC[C@]4(C)[C@H]3CC[C@]12C | inactive |
| N#CC1(O)CCCCC1 | inactive |
| CCCCCCOC(=O)c1ccccc1O | inactive |
| NS(=O)(=O)c1cc2c(cc1C(F)(F)F)NC(Cc1ccccc1)NS2(=O)=O (configuration not stated) | inactive |
| Cc1ncc(CSSCc2cnc(C)c(O)c2CO)c(CO)c1O | inactive |
| CCCCCCCCCCCCCCCCCC(=O)OCCCCCCCCCCCCCC(C)C | inactive |
| OC1OC[C@@H](O)[C@H](O)[C@H]1O (some centres not stated) | inactive |
| CCN(CC)C(=O)c1ccc(O)c(OC)c1 | inactive |
| CC(C)[C@H](N)C(=O)OCCOCn1cnc2c(=O)[nH]c(N)nc21 | inactive |
| CCCCCCCCCCCCCCCCCCOCC(O)CO (configuration not stated) | inactive |
| CN(C)CCn1nnnc1SCC1=C(C(=O)O)N2C(=O)[C@@H](NC(=O)Cc3csc(N)n3)[C@H]2SC1 | inactive |
| COCCOC(=O)CC#N | inactive |
| c1ccc(CCCc2ccccn2)cc1 | active |
| C[N+](C)(C)CC[N+]1(C)Cc2c(Cl)c(Cl)c(Cl)c(Cl)c2C1 | inactive |
| OCCN1C[C@H](O)[C@@H](O)[C@H](O)[C@H]1CO | inactive |

----------
systemTested: Cytochrome P450 2D6 (Homo sapiens) (UniProt P10635)
Sequence (P10635 whole entry, looked up): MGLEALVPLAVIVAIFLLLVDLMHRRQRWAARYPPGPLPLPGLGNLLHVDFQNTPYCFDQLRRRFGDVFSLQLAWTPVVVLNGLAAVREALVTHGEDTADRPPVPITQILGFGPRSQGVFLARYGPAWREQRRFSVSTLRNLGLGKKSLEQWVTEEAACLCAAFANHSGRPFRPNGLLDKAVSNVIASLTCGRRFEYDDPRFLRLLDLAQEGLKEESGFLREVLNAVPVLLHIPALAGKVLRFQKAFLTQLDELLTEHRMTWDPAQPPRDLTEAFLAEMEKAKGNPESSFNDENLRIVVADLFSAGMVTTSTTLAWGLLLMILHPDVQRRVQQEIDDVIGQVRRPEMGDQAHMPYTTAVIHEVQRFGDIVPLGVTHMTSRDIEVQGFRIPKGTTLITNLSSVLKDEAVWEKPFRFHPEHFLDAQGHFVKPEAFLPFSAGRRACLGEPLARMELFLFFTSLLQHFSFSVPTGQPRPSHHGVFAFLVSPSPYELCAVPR
protocolText: Cytochrome P450 Family 2 Subfamily D Member 6 (CYP2D6) small molecule antagonists: luciferase reporter qHTS assay (AID 1671196); further: nearly all actives have a fitted effect of over 50% in size; further: potency means the concentration at half of the fitted maximal effect
setupConditions: P450-Glo CYP2D6 enzyme assay, luciferin luminescence, 1 h; series mostly up to 115 µM
Records with an inconclusive call do not appear. Active and inactive are the calls of the source. The call rests on the fitted dose curve; in most records, active means well fitted inhibition curve with a large enough effect in the repeat runs; inconclusive means weak or mixed curves; inactive means no such curve, though single readings can be large or run the other way.

| compound | systemTested | Potency |
| --- | --- | --- |
| CCN(CC)S(=O)(=O)c1ccc(C(=O)O)cc1 | Cytochrome P450 2D6 (Homo sapiens) (UniProt P10635) | 38.9 µM (active) |
| CC(C)[N+](C)(C)CC(O)COc1cccc2ccccc12 (stereo unspecified) | Cytochrome P450 2D6 (Homo sapiens) (UniProt P10635) | 4.36 µM (active) |
| C=C(C)[C@@H]1CCC2=CC(=O)C[C@@H](C)[C@]2(C)C1 | Cytochrome P450 2D6 (Homo sapiens) (UniProt P10635) | inactive |
| CCN1CCN(c2cc3c(cc2F)c(=O)c(C(=O)O)cn3C2CC2)CC1 | Cytochrome P450 2D6 (Homo sapiens) (UniProt P10635) | inactive |
| CC(C)(C)CC(C)(C)N | Cytochrome P450 2D6 (Homo sapiens) (UniProt P10635) | inactive |
| CCCCCCCCCCCCCCCCCCOCC(O)CO (stereo unspecified) | Cytochrome P450 2D6 (Homo sapiens) (UniProt P10635) | inactive |
| C1=C\CC/C=C\CC/C=C\CC/1 | Cytochrome P450 2D6 (Homo sapiens) (UniProt P10635) | inactive |
| C=C[Si](OC)(OC)OC | Cytochrome P450 2D6 (Homo sapiens) (UniProt P10635) | inactive |
| O=Cc1ccccc1[N+](=O)[O-] | Cytochrome P450 2D6 (Homo sapiens) (UniProt P10635) | inactive |
| Nc1[nH]c(=O)ncc1F | Cytochrome P450 2D6 (Homo sapiens) (UniProt P10635) | inactive |
| Cc1nccn1CC1CCc2c(c3ccccc3n2C)C1=O (stereo unspecified) | Cytochrome P450 2D6 (Homo sapiens) (UniProt P10635) | 17.4 µM (active) |
| COc1cccc(OC)c1 | Cytochrome P450 2D6 (Homo sapiens) (UniProt P10635) | inactive |
| O=C1CC2(CCCC2)CC(=O)N1 | Cytochrome P450 2D6 (Homo sapiens) (UniProt P10635) | inactive |
| Cc1cc(C)c(NC(=O)CN(CC(=O)O)CC(=O)O)c(C)c1Br | Cytochrome P450 2D6 (Homo sapiens) (UniProt P10635) | inactive |
| COC(=O)[C@H]1[C@H]2C[C@@H]3c4[nH]c5cc(OC)ccc5c4CCN3C[C@H]2C[C@@H](OC(=O)COc2ccc(OC)cc2)[C@@H]1OC | Cytochrome P450 2D6 (Homo sapiens) (UniProt P10635) | 17.4 µM (active) |
| CC(C)N1C(=O)c2ccccc2C1=O | Cytochrome P450 2D6 (Homo sapiens) (UniProt P10635) | inactive |
| CC(C)(C)N(CCO)CCO | Cytochrome P450 2D6 (Homo sapiens) (UniProt P10635) | inactive |
| C1C2OC2C2C1C1CC2C2OC12 (stereo unspecified) | Cytochrome P450 2D6 (Homo sapiens) (UniProt P10635) | inactive |
| CO[Si](OC)(OC)OC | Cytochrome P450 2D6 (Homo sapiens) (UniProt P10635) | inactive |
| CCCC=O | Cytochrome P450 2D6 (Homo sapiens) (UniProt P10635) | inactive |
| O=C(O)C1CCC1 | Cytochrome P450 2D6 (Homo sapiens) (UniProt P10635) | inactive |
| C=CCOc1nc(OCC=C)nc(OCC=C)n1 | Cytochrome P450 2D6 (Homo sapiens) (UniProt P10635) | 39.9 µM (active) |
| O=c1[nH]c(=O)n([C@H]2O[C@H](CO)[C@@H](O)[C@@H]2O)cc1/C=C\Br | Cytochrome P450 2D6 (Homo sapiens) (UniProt P10635) | inactive |
| CC(C)CCCC(C)CCCC(C)CCCCC(C)CCCC(C)CCCC(C)C (stereo unspecified) | Cytochrome P450 2D6 (Homo sapiens) (UniProt P10635) | inactive |
| C=C(C)C1CC=C(C)C(O)C1 (stereo unspecified) | Cytochrome P450 2D6 (Homo sapiens) (UniProt P10635) | inactive |
| C[C@H](O)C(=O)Nc1c(I)c(C(=O)NC(CO)CO)c(I)c(C(=O)NC(CO)CO)c1I | Cytochrome P450 2D6 (Homo sapiens) (UniProt P10635) | inactive |
| Cc1c(C)n(CCN(C)C)c2ccc(C(=O)OCCN(C)C)cc12 | Cytochrome P450 2D6 (Homo sapiens) (UniProt P10635) | inactive |
| CC(C)(O)Cc1ccccc1 | Cytochrome P450 2D6 (Homo sapiens) (UniProt P10635) | inactive |
| CC(C)c1cccc(O)c1 | Cytochrome P450 2D6 (Homo sapiens) (UniProt P10635) | inactive |
| CCC(=O)Nc1cccc(N)c1 | Cytochrome P450 2D6 (Homo sapiens) (UniProt P10635) | inactive |
| Nc1nc2c(ncn2CCC(CO)CO)c(=O)[nH]1 | Cytochrome P450 2D6 (Homo sapiens) (UniProt P10635) | inactive |
| O=C(O)/C=C/c1ccc(Cn2ccnc2)cc1 | Cytochrome P450 2D6 (Homo sapiens) (UniProt P10635) | inactive |
| CN1[C@@H]2CC[C@H]1CC(NC(=O)n1c(=O)[nH]c3ccccc31)C2 (stereo partly specified) | Cytochrome P450 2D6 (Homo sapiens) (UniProt P10635) | 0.776 µM (active) |
| CC1=CC(=O)CCC1 | Cytochrome P450 2D6 (Homo sapiens) (UniProt P10635) | inactive |
| CC1=CC(C)C(C=O)C(C)C1 (stereo unspecified) | Cytochrome P450 2D6 (Homo sapiens) (UniProt P10635) | inactive |
| CC(C)COC(=O)c1ccccc1O | Cytochrome P450 2D6 (Homo sapiens) (UniProt P10635) | inactive |
| Nc1ncnc2c1ncn2Cc1c(F)cccc1Cl | Cytochrome P450 2D6 (Homo sapiens) (UniProt P10635) | inactive |
| C(=C(c1ccccc1)c1ccccc1)c1ccccc1 | Cytochrome P450 2D6 (Homo sapiens) (UniProt P10635) | inactive |
| Cc1ncc(CSSCc2cnc(C)c(O)c2CO)c(CO)c1O | Cytochrome P450 2D6 (Homo sapiens) (UniProt P10635) | 6.17 µM (active) |
| Cc1ccc(Nc2ccc(O)c3c2C(=O)c2ccccc2C3=O)cc1 | Cytochrome P450 2D6 (Homo sapiens) (UniProt P10635) | inactive |
| CCCCN(CCO)CCO | Cytochrome P450 2D6 (Homo sapiens) (UniProt P10635) | inactive |
| CC(=O)N[C@@H](CCC(N)=O)C(=O)O | Cytochrome P450 2D6 (Homo sapiens) (UniProt P10635) | inactive |
| CCc1cc(S(=O)(=O)O)c2cc(C(C)C)cccc1-2 | Cytochrome P450 2D6 (Homo sapiens) (UniProt P10635) | inactive |
| OCC(CO)(CO)COCC(CO)(CO)CO | Cytochrome P450 2D6 (Homo sapiens) (UniProt P10635) | inactive |
| C[N+](C)(C)CC[N+]1(C)Cc2c(Cl)c(Cl)c(Cl)c(Cl)c2C1 | Cytochrome P450 2D6 (Homo sapiens) (UniProt P10635) | 1.55 µM (active) |
| NCCN1CCNC1=O | Cytochrome P450 2D6 (Homo sapiens) (UniProt P10635) | inactive |
| CC(C)(C)OC(=O)N1C[C@@H](F)C[C@H]1C(=O)O | Cytochrome P450 2D6 (Homo sapiens) (UniProt P10635) | inactive |
| CC(C)c1ccc2oc3nc(N)c(C(=O)O)cc3c(=O)c2c1 | Cytochrome P450 2D6 (Homo sapiens) (UniProt P10635) | 15.5 µM (active) |
| Cc1cc(C)cc(OCC2CNC(=O)O2)c1 (stereo unspecified) | Cytochrome P450 2D6 (Homo sapiens) (UniProt P10635) | inactive |
| CCCCCCCCCCCl | Cytochrome P450 2D6 (Homo sapiens) (UniProt P10635) | inactive |
| O=C(CCOCCOCCOCCOCCC(=O)Nc1c(I)cc(I)c(C(=O)O)c1I)Nc1c(I)cc(I)c(C(=O)O)c1I | Cytochrome P450 2D6 (Homo sapiens) (UniProt P10635) | inactive |
| CC1(C)SC(C)(C)SC(C)(C)S1 | Cytochrome P450 2D6 (Homo sapiens) (UniProt P10635) | inactive |
| CCCCCCCCCCCCI | Cytochrome P450 2D6 (Homo sapiens) (UniProt P10635) | inactive |
| c1ccc2cnncc2c1 | Cytochrome P450 2D6 (Homo sapiens) (UniProt P10635) | inactive |
| COc1cccc(Br)c1 | Cytochrome P450 2D6 (Homo sapiens) (UniProt P10635) | inactive |
| CC1(C)OC(=O)Nc2ccc(Br)cc21 | Cytochrome P450 2D6 (Homo sapiens) (UniProt P10635) | inactive |
